Recorded pIC50 for the following compounds
molecular target: Escherichia coli Klenow polymerase (pol) (Escherichia coli, UniProt P00582, D355A/E357A); assay: Inhibition of Klenow polymerase activity
Sequence (P00582 324-928 D355A/E357A): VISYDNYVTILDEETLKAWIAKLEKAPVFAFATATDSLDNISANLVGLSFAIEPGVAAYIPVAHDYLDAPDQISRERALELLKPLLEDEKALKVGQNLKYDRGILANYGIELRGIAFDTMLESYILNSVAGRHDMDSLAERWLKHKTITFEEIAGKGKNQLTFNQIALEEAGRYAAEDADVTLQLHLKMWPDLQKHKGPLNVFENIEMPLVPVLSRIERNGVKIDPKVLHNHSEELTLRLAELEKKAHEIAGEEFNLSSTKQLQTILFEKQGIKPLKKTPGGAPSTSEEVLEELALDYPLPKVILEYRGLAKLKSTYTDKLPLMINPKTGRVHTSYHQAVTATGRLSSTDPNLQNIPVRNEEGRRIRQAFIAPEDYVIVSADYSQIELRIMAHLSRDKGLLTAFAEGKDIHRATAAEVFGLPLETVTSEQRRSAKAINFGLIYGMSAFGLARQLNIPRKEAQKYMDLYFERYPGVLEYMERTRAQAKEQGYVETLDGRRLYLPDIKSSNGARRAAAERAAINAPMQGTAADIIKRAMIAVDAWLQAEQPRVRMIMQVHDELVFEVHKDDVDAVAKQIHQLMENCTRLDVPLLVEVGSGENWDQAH
pIC50: −log10 of the molar value.
endpoint name: pIC50

{"smiles": "NC[C@H]1O[C@H](O[C@H]2[C@H](O)[C@@H](O[C@H]3O[C@H](CO)[C@@H](O)[C@H](N)[C@H]3O)[C@H](N)C[C@@H]2N)[C@H](N)C[C@@H]1O", "observed value": 2.03}
{"smiles": "NC[C@@H]1O[C@H](O[C@H]2[C@@H](O)[C@H](O[C@@H]3[C@@H](O)[C@H](N)C[C@H](N)[C@H]3O[C@H]3O[C@H](CO)[C@@H](O)[C@H](O)[C@H]3N)O[C@@H]2CO)[C@H](N)[C@@H](O)[C@@H]1O", "observed value": 1.99}
{"smiles": "NC[C@@H]1O[C@H](O[C@H]2[C@@H](O)[C@H](O[C@@H]3[C@@H](O)[C@H](N)C[C@H](N)[C@H]3O[C@H]3O[C@H](CO)[C@@H](O)C[C@H]3N)O[C@@H]2CO)[C@H](N)[C@@H](O)[C@@H]1O[C@H]1O[C@H](CO)[C@@H](O)[C@H](O)[C@@H]1O", "observed value": 1.94}

====

target: RNase P RNA; assay: Inhibition of RNase P RNA cleavage; assay type: biochemical, Escherichia coli; conditions: value without asterisk; read-out: appKi inhibition of RNase P RNA cleavage

{"compound": "CN[C@@H]1[C@@H](O)[C@@H](O[C@@H]2[C@H](O)[C@H](O[C@H]3OC(CN)=CC[C@H]3N)[C@@H](N)C[C@H]2N)OC[C@]1(C)O [5-epi-Sisomicin]", "IC50": "~3 µM"}

====

biological target: Escherichia coli Klenow polymerase (pol) (Escherichia coli, UniProt P00582, D355A/E357A); assay: Inhibition of Klenow polymerase activity; conditions: read-out: appKi (for KL pol); […]; pH 7.0
pIC50: −log10 of the molar value.

{"compound": "NC[C@H]1O[C@H](O[C@H]2[C@H](O)[C@@H](O[C@H]3O[C@H](CO)[C@@H](O)[C@H](N)[C@H]3O)[C@H](N)C[C@@H]2N)[C@H](O)[C@@H](O)[C@@H]1O [Kanamycin A]", "pIC50": 1.84}
{"compound": "NC[C@H]1O[C@H](O[C@H]2[C@H](O)[C@@H](O[C@H]3O[C@H](CO)[C@@H](O)[C@H](N)[C@H]3O)[C@H](N)C[C@@H]2N)[C@H](N)[C@@H](O)[C@@H]1O [Kanamycin B]", "pIC50": 2.04}
{"compound": "NC[C@@H]1O[C@H](O[C@H]2[C@@H](O)[C@H](O[C@@H]3[C@@H](O)[C@H](N)C[C@H](N)[C@H]3O[C@H]3O[C@H](CN)[C@@H](O)[C@H](O)[C@H]3N)O[C@@H]2CO)[C@H](N)[C@@H](O)[C@@H]1O [Neomycin B]", "pIC50": 2.32}

====

target: 31-mer RNA representing the P15-loop of RNase P RNA; assay: Inhibition of Pb2+-induced cleavage of the 31-mer model RNA (P15-loop); conditions: aminoglycoside concentration that gives 50% inhibition of Pb2+-induced cleavage; read-out: appKi 31-mer RNA

{"molecule": "NC[C@@H]1O[C@H](O[C@H]2[C@@H](O)[C@H](O[C@@H]3[C@@H](O)[C@H](N)C[C@H](N)[C@H]3O[C@H]3O[C@H](CN)[C@@H](O)[C@H](O)[C@H]3N)O[C@@H]2CO)[C@H](N)[C@@H](O)[C@@H]1O", "IC50": "40 µM"}
{"molecule": "CN[C@@H]1[C@@H](O)[C@@H](O[C@@H]2[C@H](O)[C@H](O[C@H]3OC(CN)=CC[C@H]3N)[C@@H](N)C[C@H]2N)OC[C@]1(C)O [5-epi-Sisomicin]", "IC50": "1.2 µM"}
{"molecule": "CN[C@@H]1[C@@H](O)[C@@H](O[C@@H]2[C@@H](O)[C@H](O[C@H]3OC(CN)=CC[C@H]3N)[C@@H](N)C[C@H]2N)OC[C@]1(C)O", "IC50": "17 µM"}
{"molecule": "NC[C@@H]1O[C@H](O[C@H]2[C@@H](O)[C@H](O[C@@H]3[C@@H](O)[C@H](N)C[C@H](N)[C@H]3O[C@H]3O[C@H](CO)[C@@H](O)[C@H](O)[C@H]3N)O[C@@H]2CO)[C@H](N)[C@@H](O)[C@@H]1O", "IC50": "340 µM"}
